- Tested on: Rattus norvegicus
- assay-method-text: Conditioned avoidance response activity was determined by the ability to block the conditioned avoidance of a foot shock at 5 mg/kg(ip)
- Format: functional
Items are presented alongside their recorded inhibition in vivo at 5 mg/kg.
Include the unit right after the number.

For orientation, consider the following solved cases.
input-smiles	property	result-value
CC(C)Oc1ccccc1N1CCN(Cc2cccc(CN3CCCCC3=O)n2)CC1.Cl	inhibition in vivo at 5 mg/kg	85%
COc1ccccc1N1CCN(Cc2ccc(CN(Cc3ccccc3)C(C)=O)n2C)CC1.O=C(O)CCC(=O)O	inhibition in vivo at 5 mg/kg	3%
CC(C)Oc1ccccc1N1CCN(Cc2cc(C(=O)N3CCCCCC3)cs2)CC1.Cl	inhibition in vivo at 5 mg/kg	45%

Incoming: Give inhibition in vivo at 5 mg/kg for "CC(C)Oc1ccccc1N1CCN(CCc2ccc(C(=O)C(=O)N3CCOCC3)n2C)CC1.O=C(O)CCC(=O)O"
Outgoing: 2%

Incoming: Give inhibition in vivo at 5 mg/kg for "COc1ccccc1N1CCN(Cc2ccc(CN(C)C(C)=O)n2C)CC1.O=C(O)CCC(=O)O"
Outgoing: 52%

Incoming: Give inhibition in vivo at 5 mg/kg for "CC(C)Oc1ccccc1N1CCN(Cc2cccc(C(=O)N3CCCCC3)c2)CC1"
Outgoing: 98%

Incoming: Give inhibition in vivo at 5 mg/kg for "CC(C)Oc1ccccc1N1CCN(Cc2ccc(CN(C(=O)C(C)C)C(C)C)n2C)CC1.O=C(O)CCC(=O)O"
Outgoing: 0%

Incoming: Give inhibition in vivo at 5 mg/kg for "COc1ccccc1N1CCN(Cc2ccc(CN(Cc3ccccc3)C(=O)c3ccccc3)n2C)CC1.O=C(O)CCC(=O)O"
Outgoing: 8%

Incoming: Give inhibition in vivo at 5 mg/kg for "CC(C)Oc1ccccc1N1CCN(Cc2cc(C(=O)N3CCCCC3)cs2)CC1.Cl"
Outgoing: 72%

From: ChEMBL document CHEMBL1128321
